Target: Sialidase (Clostridium perfringens)
Test: Inhibition of Clostridium perfringens neuraminidase by fluorimetry
readoutType: pIC50
Entry type: numeric. Quantity: pIC50, the -log10 of concentration in molar units.

Noted for COc1c(O)cc2oc3cc(O)c(CC=C(C)C)c(O)c3c(=O)c2c1CC=C(C)C [MANGOSTIN] : its pIC50 reads 4.91

What the record says about CC(C)=CCc1c(O)cc2oc3cc(O)c(O)c(CC=C(C)C)c3c(=O)c2c1O : pIC50 is 5.66

Entry COc1cc2oc3c(O)cccc3c(=O)c2c(O)c1CC=C(C)C [CUDRAXANTHONE] — recorded pIC50 = 4.18

Short answer for COc1cc2oc3cc(O)c(OC)c(CC=C(C)C)c3c(=O)c2c(O)c1CC=C(C)C : pIC50 was 4.22

GET /value?item= O=c1c(O)c(-c2ccc(O)c(O)c2)oc2cc(O)cc(O)c12 [QUERCETIN] &field=pIC50 returns 5.01

For reference, reported pIC50 for CC(C)=CCC/C(C)=C/Cc1c(O)cc2oc3c(O)ccc(O)c3c(=O)c2c1O [SMEATHXANTHONE A] stands at 6.57

Entry C=C(C)C1Cc2c(cc3oc4cc(O)c(OC)c(CC=C(C)C)c4c(=O)c3c2O)O1 (stereo not drawn) [MANGOSTENONE F] — recorded pIC50 = 4.61

According to the records, this molecule CC(C)=CCc1c(O)c(CC=C(C)C)c2oc3c(O)ccc(O)c3c(=O)c2c1O [GARTANIN] displays pIC50 of 5.54

What the record says about CC(C)=CCc1c(O)c(CC=C(C)C)c2oc3c(O)cccc3c(=O)c2c1O [8-DEOXYGARTANIN] : pIC50 is 4.53

Input COc1c(O)cc2oc3cc(O)c(CC=C(C)C)c(O)c3c(=O)c2c1CCC(C)(C)O [GARCINONE D] . Output pIC50: 5.24

Query C=C(C)C1Cc2c(c(O)cc3oc4cc(O)c(CC=C(C)C)c(O)c4c(=O)c23)O1 (stereo not drawn) [MANGOSTENONE G] yields pIC50 of 4.84

pIC50 recorded for this molecule, COc1c(O)cc2oc3cc4c(c(O)c3c(=O)c2c1CC=C(C)C)CC(O)C(C)(C)O4 (stereo not drawn) [MANGOSTANOL] , is 4.67

Quick note, pIC50 for COc1c(O)cc2oc3cc4c(c(O)c3c(=O)c2c1CC=C(C)C)C=CC(C)(C)O4 [MANGOSTANIN] landed at 4.70

----------
Biological target: Sialidase (Clostridium perfringens, UniProt P10481)
Sequence (P10481 whole entry): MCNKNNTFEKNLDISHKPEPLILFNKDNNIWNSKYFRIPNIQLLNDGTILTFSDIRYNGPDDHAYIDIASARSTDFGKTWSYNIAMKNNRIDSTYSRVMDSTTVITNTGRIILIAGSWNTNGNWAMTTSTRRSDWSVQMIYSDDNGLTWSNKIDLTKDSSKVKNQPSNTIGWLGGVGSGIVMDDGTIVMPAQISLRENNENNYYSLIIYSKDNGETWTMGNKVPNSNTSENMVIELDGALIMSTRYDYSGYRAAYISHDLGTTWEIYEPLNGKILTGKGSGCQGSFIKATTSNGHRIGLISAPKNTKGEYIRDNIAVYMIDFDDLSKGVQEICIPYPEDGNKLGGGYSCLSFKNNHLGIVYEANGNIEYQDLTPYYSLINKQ
Test: Competitive inhibition of Clostridium perfringens neuraminidase by fluorimetry
Please provide measured Ki for the entries that follow.
I only need the number, in µM, no unit after it.

Input COc1c(O)cc2oc3cc(O)c(CC=C(C)C)c(O)c3c(=O)c2c1CC=C(C)C . Output Ki: 5.8

Entry COc1c(O)cc2oc3cc(O)c(CC=C(C)C)c(O)c3c(=O)c2c1CCC(C)(C)O , Ki reported as 3.3

The reported value for C=C(C)C1Cc2c(c(O)cc3oc4cc(O)c(CC=C(C)C)c(O)c4c(=O)c23)O1 (centres undefined) in terms of Ki is 6.8

// Ki lookup, compound = COc1c(O)cc2oc3cc4c(c(O)c3c(=O)c2c1CC=C(C)C)C=CC(C)(C)O4 , result: 5.9

----------
Molecular target: Sialidase (Clostridium perfringens, UniProt P10481)
Assay: Competitive inhibition of Clostridium perfringens neuraminidase by fluorimetry
readoutType: Ki (µM)
The reply should be a number in µM, with the unit left off.

Sialidase (Clostridium perfringens, UniProt P10481) data for C=C(C)C1Cc2c(cc3oc4cc(O)c(OC)c(CC=C(C)C)c4c(=O)c3c2O)O1 (stereo not drawn) ; its Ki: 7.6

Ki on Sialidase (Clostridium perfringens, UniProt P10481) for COc1c(O)cc2oc3cc4c(c(O)c3c(=O)c2c1CC=C(C)C)CC(O)C(C)(C)O4 (stereo not drawn) is 6.5

Measured Ki (Sialidase (Clostridium perfringens, UniProt P10481)), entry CC(C)=CCC/C(C)=C/Cc1c(O)cc2oc3c(O)ccc(O)c3c(=O)c2c1O : 0.15

Sialidase (Clostridium perfringens, UniProt P10481) assay, compound CC(C)=CCc1c(O)cc2oc3cc(O)c(O)c(CC=C(C)C)c3c(=O)c2c1O , recorded Ki = 0.8

Ki value, target or system Sialidase (Clostridium perfringens, UniProt P10481), for COc1cc2oc3c(O)cccc3c(=O)c2c(O)c1CC=C(C)C : 35.2

Item: CC(C)=CCc1c(O)c(CC=C(C)C)c2oc3c(O)cccc3c(=O)c2c1O | System: Sialidase (Clostridium perfringens, UniProt P10481) | Ki: 15.5

Lab entry: Sialidase (Clostridium perfringens, UniProt P10481) assay, compound CC(C)=CCc1c(O)c(CC=C(C)C)c2oc3c(O)ccc(O)c3c(=O)c2c1O , Ki = 3.6

Case COc1cc2oc3cc(O)c(OC)c(CC=C(C)C)c3c(=O)c2c(O)c1CC=C(C)C , Sialidase (Clostridium perfringens, UniProt P10481), Ki recorded as 24.9

----------
Target: Sialidase (Clostridium perfringens, UniProt P10481)
Test: Inhibition of Clostridium perfringens neuraminidase by fluorimetry
Details: read-out: Ki(app)
readoutType: pKi
The read-out pKi is expressed as -log10 of concentration in moles per litre.

Item: CC(C)=CCC/C(C)=C/Cc1c(O)cc2oc3c(O)ccc(O)c3c(=O)c2c1O | System: Sialidase (Clostridium perfringens, UniProt P10481) | pKi: 7.35

The recorded pKi with Sialidase (Clostridium perfringens, UniProt P10481) for CC(C)=CCc1c(O)c(CC=C(C)C)c2oc3c(O)ccc(O)c3c(=O)c2c1O was 6.36

CC(C)=CCc1c(O)cc2oc3cc(O)c(O)c(CC=C(C)C)c3c(=O)c2c1O tested on Sialidase (Clostridium perfringens, UniProt P10481) gave pKi: 5.13
